test: Single ascending dose and food-effect pharmacokinetics of naringin tablets in healthy humans; format: in vivo, human; conditions: both sexes, human, plasma, po, 160 mg, naringin 160 mg (high-fat diet) p.o. single dose, human; read-out: MRT0-∞
quantityName: MRT inf (h)
Numbers only, in h.

q: Please look up its MRT inf: C[C@@H]1O[C@@H](O[C@H]2[C@H](Oc3cc(O)c4c(c3)O[C@H](c3ccc(O)cc3)CC4=O)O[C@H](CO)[C@@H](O)[C@@H]2O)[C@H](O)[C@H](O)[C@H]1O [naringin, Naringin]
a: 6.19

---

test: Single-dose pharmacokinetics in dogs (plasma, UHPLC/MS/MS); assay type: in vivo, Beagle dogs; conditions: both sexes, Beagle, dog, plasma, po, 12.4 mg/kg; read-out: MRT0-t
quantityName: MRT last (h)
Numbers only, in h.

q: Please look up its MRT last: C[C@@H]1O[C@@H](O[C@H]2[C@H](Oc3cc(O)c4c(c3)O[C@H](c3ccc(O)cc3)CC4=O)O[C@H](CO)[C@@H](O)[C@@H]2O)[C@H](O)[C@H](O)[C@H]1O
a: 1.77

---

Assay: Single-dose pharmacokinetics in rats (plasma, UHPLC/MS/MS)
Type: in vivo, Sprague Dawley rats
Details: male, Sprague Dawley, rat, plasma, po, 168 mg/kg
Source text: Sixty healthy adult Sprague Dawley rats (180-220 g, half male and female) were purchased from the Guangdong Medical Laboratory Animal Center (Guangzhou, Guangdong, China). Thirty Beagle dogs (10-14 kg, half male and female) were purchased from the […] […] The compounds were detected by multiple reaction monitoring in the negative ion electrospray mode. […] All pharmacokinetic and excretion parameters were expressed as mean ± standard deviation (SD). […]
quantityName: AUC(0-t) (ng·h/mL)
Give bare numbers, in ng·h/mL.

q: Please look up its AUC(0-t): C[C@@H]1O[C@@H](O[C@H]2[C@H](Oc3cc(O)c4c(c3)O[C@H](c3ccc(O)cc3)CC4=O)O[C@H](CO)[C@@H](O)[C@@H]2O)[C@H](O)[C@H](O)[C@H]1O
a: 144

---

experiment: Single-dose pharmacokinetics in dogs (plasma, UHPLC/MS/MS); format: in vivo, Beagle dogs; conditions: female, Beagle, dog, plasma, iv, 12.4 mg/kg
quantityName: Cmax (ng/mL)
Give bare numbers, in ng/mL.

q: Please look up its Cmax: C[C@@H]1O[C@@H](O[C@H]2[C@H](Oc3cc(O)c4c(c3)O[C@H](c3ccc(O)cc3)CC4=O)O[C@H](CO)[C@@H](O)[C@@H]2O)[C@H](O)[C@H](O)[C@H]1O
a: 5860

---

experiment: Single-dose pharmacokinetics in dogs (plasma, UHPLC/MS/MS); format: in vivo, Beagle dogs; conditions: both sexes, beagle, dog, plasma, iv, 12.4 mg/kg
quantityName: half-life (h)
Numbers only, in h.

q: Please look up its half-life: C[C@@H]1O[C@@H](O[C@H]2[C@H](Oc3cc(O)c4c(c3)O[C@H](c3ccc(O)cc3)CC4=O)O[C@H](CO)[C@@H](O)[C@@H]2O)[C@H](O)[C@H](O)[C@H]1O
a: 1.37

---

test: Single-dose pharmacokinetics in dogs (plasma, UHPLC/MS/MS); type: in vivo, Beagle dogs; details: male, Beagle, dog, plasma, po, 49.6 mg/kg
quantityName: AUC(0-t) (ng·h/mL)
Answers are plain numbers, in ng·h/mL.

q: Please look up its AUC(0-t): C[C@@H]1O[C@@H](O[C@H]2[C@H](Oc3cc(O)c4c(c3)O[C@H](c3ccc(O)cc3)CC4=O)O[C@H](CO)[C@@H](O)[C@@H]2O)[C@H](O)[C@H](O)[C@H]1O [naringin, Naringin]
a: 181
